Let's look at some molecules and their measured Activity.
Test system: MOLT-4
Protocol Description: Antiproliferative activity against human MOLT-4 cells assessed as […] cell proliferation at 10 uM incubated for 48 hrs by WST-1 assay relative to control
Type: functional
Provide the reading as a plain figure in %.

Observe how each entry below is paired with its result.
| Smiles Notation | Meas Value |
| --- | --- |
| CC(C)S(=O)(=O)c1ccc(-c2cnc3[nH]c(C(=O)N4CCc5ccccc5C4)cc3c2)cc1 | 71 |
| CC(C)S(=O)(=O)c1ccc(-c2cnc3[nH]cc(C(=O)N4CCC(c5ccccc5)CC4)c3c2)cc1 | 30 |

Quick one: Activity of `CC(C)S(=O)(=O)c1ccc(-c2cnc3[nH]nc(C(=O)N4CCc5ccccc5C4)c3c2)cc1` ?
96

For `CCN1CCN(C2CCN(C(=O)c3cc4cc(-c5ccc(S(C)(=O)=O)cc5)cnc4[nH]3)CC2)CC1` , what is its reported Activity?
96

* * *

Test system: GBM
Protocol Description: Cytotoxicity against patient-derived human GBM cells assessed as reduction in cell viability at 15 uM incubated for 48 hrs by MTT assay
Type: functional
The source made the active and inactive calls. No cut-off for these calls is given here.
Quantity Measured: Activity

Solved cases below.
| Smiles Notation | Meas Value |
| --- | --- |
| CC(C)S(=O)(=O)c1ccc(-c2cnc3[nH]cc(C(=O)N4CCC(c5ccccc5)CC4)c3c2)cc1 | Active |
| CCN(CC)c1ccc(CNC(=O)c2c[nH]c3ncc(-c4ccc(S(=O)(=O)C(C)C)cc4)cc23)cc1 | Active |
| CC(C)S(=O)(=O)c1ccc(-c2cnc3[nH]c(C(=O)N4CCc5ccccc5C4)cc3c2)cc1 | 50% |
| CC(C)S(=O)(=O)c1ccc(-c2cc(C(=O)N3CCc4ccccc4C3)n[nH]2)cc1 | 50% |

What value of Activity has been recorded for this entry: `CCN1CCN(C2CCN(Cc3c[nH]c4ncc(-c5ccc(S(=O)(=O)C(C)C)cc5)cc34)CC2)CC1`
Active

Quick one: Activity of `CC(C)S(=O)(=O)c1ccc(-c2cnc3[nH]nc(C(=O)N4CCC(c5ccccc5)CC4)c3c2)cc1` ?
50%

Please report the recorded Activity for `CC(C)S(=O)(=O)c1ccc(-c2cnc3[nH]cc(CN4CCC(c5ccccc5)CC4)c3c2)cc1` .
Active

* * *

Attribute: Activity
Test system: MCF7
Protocol Description: Antiproliferative activity against human MCF7 cells assessed as […] cell proliferation at 10 uM incubated for 48 hrs in presence of 10 uM of CDDP by WST-1 assay relative to control
Type: functional
Write down the numeric answer in % and omit the unit.

Solved cases (3 shown):
| Smiles Notation | Quantity Measured | Meas Value |
| --- | --- | --- |
| CC(C)S(=O)(=O)c1ccc(-c2cc(-c3nc(-c4ccccc4)no3)n[nH]2)cc1 | Activity | 62 |
| CC(C)S(=O)(=O)c1ccc(-c2cc(C(=O)Nc3ccccc3)n[nH]2)cc1 | Activity | 70 |
| CC(C)S(=O)(=O)c1ccc(-c2cnc3[nH]nc(C(=O)N4CCc5ccccc5C4)c3c2)cc1 | Activity | 61 |

Requested field: Activity. Item: `CCN(CC)c1ccc(CNC(=O)c2c[nH]c3ncc(-c4ccc(S(=O)(=O)C(C)C)cc4)cc23)cc1`
58

Recorded Activity of `CS(=O)(=O)c1ccc(-c2cnc3[nH]cc(C(=O)N4CCC(c5ccccc5)CC4)c3c2)cc1` , please.
44

State the recorded Activity for this entry: `CCN(CC)c1ccc(CNC(=O)c2n[nH]c3ncc(-c4ccc(S(=O)(=O)C(C)C)cc4)cc23)cc1`
57

May I ask what Activity has been recorded for `CC(C)S(=O)(=O)c1ccc(-c2cc(C(=O)N3CCc4ccccc4C3)n[nH]2)cc1` ?
57

May I ask what Activity has been recorded for `CC(C)S(=O)(=O)c1ccc(-c2cc(C(=O)N3CCC(c4ccccc4)CC3)n[nH]2)cc1` ?
62

* * *

Measured Activity values are reported for all entries that follow.
Tested on: A549
Protocol Description: Antiproliferative activity against human A549 cells assessed as […] cell proliferation at 10 uM incubated for 48 hrs in presence of 15 uM of CDDP by WST-1 assay relative to control
Assay type: functional
All answers are understood in %, so give the number only.

| Smiles Notation | Assay System | Meas Value |
| --- | --- | --- |
| CCN1CCN(C(=O)c2cc3cc(-c4ccc(S(C)(=O)=O)cc4)cnc3[nH]2)CC1 | A549 | 58 |
| CC(C)S(=O)(=O)c1ccc(-c2cc(C(=O)Nc3ccc(N(C)C)cc3)n[nH]2)cc1 | A549 | 65 |
| CC(C)S(=O)(=O)c1ccc(-c2cnc3[nH]nc(C(=O)NCc4ccccc4)c3c2)cc1 | A549 | 60 |
| CCN1CCN(C2CCN(C(=O)c3c[nH]c4ncc(-c5ccc(S(=O)(=O)C(C)C)cc5)cc34)CC2)CC1 | A549 | 62 |

Shifting focus to the compound that follows.
Which value of Activity has been reported for `CC(C)S(=O)(=O)c1ccc(-c2cnc3[nH]cc(C(=O)Nc4ccc(N(C)C)cc4)c3c2)cc1` in the records?
59

* * *

System: Jurkat
Protocol Description: Antiproliferative activity against human Jurkat cells assessed as […] cell proliferation at 10 uM incubated for 48 hrs by WST-1 assay relative to control
Assay type: functional
hey, just use 1 (yes) if measured Activity is less than 90%, otherwise 0 (no)

| Smiles Notation | Group |
| --- | --- |
| CCN(CC)c1ccc(CNC(=O)c2cc(-c3ccc(S(=O)(=O)C(C)C)cc3)[nH]n2)cc1 | 1 (yes) |
| CC(C)S(=O)(=O)c1ccc(-c2cnc3[nH]c(C(=O)NCc4ccccc4)cc3c2)cc1 | 0 (no) |
| CCN(CC)c1ccc(CNC(=O)c2n[nH]c3ncc(-c4ccc(S(=O)(=O)C(C)C)cc4)cc23)cc1 | 1 (yes) |

Just wondering, is Activity of `CS(=O)(=O)c1ccc(-c2cnc3[nH]cc(C(=O)N4CCC(c5ccccc5)CC4)c3c2)cc1` below 90%?
1 (yes)

Problem: For the molecule `CC(C)S(=O)(=O)c1ccc(-c2cc(C(=O)Nc3ccccc3)n[nH]2)cc1` , is Activity under 90%?
0 (no)

Hello, is Activity of the following molecule strictly smaller than 90%? `CS(=O)(=O)c1ccc(-c2cnc(N)c(C(=O)Nc3ccccc3)n2)cc1`
1 (yes)

Below 90% on Activity? Entry `CCN1CCN(C2CCN(C(=O)c3c[nH]c4ncc(-c5ccc(S(=O)(=O)C(C)C)cc5)cc34)CC2)CC1`
0 (no)

* * *

Test system: A549
Protocol Description: Antiproliferative activity against human A549 cells assessed as […] cell proliferation at 10 uM incubated for 48 hrs in presence of 15 uM of CDDP by WST-1 assay relative to control
Type: functional
# Lookup of reported Activity keyed by entry
Numbers only; they are read as %.

| Smiles Notation | Unit Info | Activity |
| --- | --- | --- |
| CC(C)S(=O)(=O)c1ccc(-c2cnc3[nH]cc(C(=O)N4CCC(c5ccccc5)CC4)c3c2)cc1 | % | 28 |
| CCN(CC)c1ccc(CNC(=O)c2cc(-c3ccc(S(=O)(=O)C(C)C)cc3)[nH]n2)cc1 | % | 62 |
| CC(C)S(=O)(=O)c1ccc(-c2cnc3[nH]c(C(=O)NCc4ccccc4)cc3c2)cc1 | % | 61 |
| CC(C)S(=O)(=O)c1ccc(-c2cc(C(=O)NCc3ccccc3)n[nH]2)cc1 | % | 68 |
| CCN1CCN(C(=O)c2c[nH]c3ncc(-c4ccc(S(=O)(=O)C(C)C)cc4)cc23)CC1 | % | 66 |
| CS(=O)(=O)c1ccc(-c2cc(C(=O)NCc3ccccc3)n[nH]2)cc1 | % | 63 |
| CC(C)S(=O)(=O)c1ccc(-c2cc(-c3nc(-c4ccccc4)no3)n[nH]2)cc1 | % | 62 |
| CC(C)S(=O)(=O)c1ccc(-c2cnc3[nH]cc(CN4CCC(c5ccccc5)CC4)c3c2)cc1 | % | 46 |

Okay, now this compound:
Could you share which Activity value was measured for `CCN1CCN(C2CCN(C(=O)c3cc4cc(-c5ccc(S(C)(=O)=O)cc5)cnc4[nH]3)CC2)CC1` ?
67

* * *

Assay System: Serine/threonine-protein kinase ATR (Homo sapiens)
Sequence (Q13535 whole entry): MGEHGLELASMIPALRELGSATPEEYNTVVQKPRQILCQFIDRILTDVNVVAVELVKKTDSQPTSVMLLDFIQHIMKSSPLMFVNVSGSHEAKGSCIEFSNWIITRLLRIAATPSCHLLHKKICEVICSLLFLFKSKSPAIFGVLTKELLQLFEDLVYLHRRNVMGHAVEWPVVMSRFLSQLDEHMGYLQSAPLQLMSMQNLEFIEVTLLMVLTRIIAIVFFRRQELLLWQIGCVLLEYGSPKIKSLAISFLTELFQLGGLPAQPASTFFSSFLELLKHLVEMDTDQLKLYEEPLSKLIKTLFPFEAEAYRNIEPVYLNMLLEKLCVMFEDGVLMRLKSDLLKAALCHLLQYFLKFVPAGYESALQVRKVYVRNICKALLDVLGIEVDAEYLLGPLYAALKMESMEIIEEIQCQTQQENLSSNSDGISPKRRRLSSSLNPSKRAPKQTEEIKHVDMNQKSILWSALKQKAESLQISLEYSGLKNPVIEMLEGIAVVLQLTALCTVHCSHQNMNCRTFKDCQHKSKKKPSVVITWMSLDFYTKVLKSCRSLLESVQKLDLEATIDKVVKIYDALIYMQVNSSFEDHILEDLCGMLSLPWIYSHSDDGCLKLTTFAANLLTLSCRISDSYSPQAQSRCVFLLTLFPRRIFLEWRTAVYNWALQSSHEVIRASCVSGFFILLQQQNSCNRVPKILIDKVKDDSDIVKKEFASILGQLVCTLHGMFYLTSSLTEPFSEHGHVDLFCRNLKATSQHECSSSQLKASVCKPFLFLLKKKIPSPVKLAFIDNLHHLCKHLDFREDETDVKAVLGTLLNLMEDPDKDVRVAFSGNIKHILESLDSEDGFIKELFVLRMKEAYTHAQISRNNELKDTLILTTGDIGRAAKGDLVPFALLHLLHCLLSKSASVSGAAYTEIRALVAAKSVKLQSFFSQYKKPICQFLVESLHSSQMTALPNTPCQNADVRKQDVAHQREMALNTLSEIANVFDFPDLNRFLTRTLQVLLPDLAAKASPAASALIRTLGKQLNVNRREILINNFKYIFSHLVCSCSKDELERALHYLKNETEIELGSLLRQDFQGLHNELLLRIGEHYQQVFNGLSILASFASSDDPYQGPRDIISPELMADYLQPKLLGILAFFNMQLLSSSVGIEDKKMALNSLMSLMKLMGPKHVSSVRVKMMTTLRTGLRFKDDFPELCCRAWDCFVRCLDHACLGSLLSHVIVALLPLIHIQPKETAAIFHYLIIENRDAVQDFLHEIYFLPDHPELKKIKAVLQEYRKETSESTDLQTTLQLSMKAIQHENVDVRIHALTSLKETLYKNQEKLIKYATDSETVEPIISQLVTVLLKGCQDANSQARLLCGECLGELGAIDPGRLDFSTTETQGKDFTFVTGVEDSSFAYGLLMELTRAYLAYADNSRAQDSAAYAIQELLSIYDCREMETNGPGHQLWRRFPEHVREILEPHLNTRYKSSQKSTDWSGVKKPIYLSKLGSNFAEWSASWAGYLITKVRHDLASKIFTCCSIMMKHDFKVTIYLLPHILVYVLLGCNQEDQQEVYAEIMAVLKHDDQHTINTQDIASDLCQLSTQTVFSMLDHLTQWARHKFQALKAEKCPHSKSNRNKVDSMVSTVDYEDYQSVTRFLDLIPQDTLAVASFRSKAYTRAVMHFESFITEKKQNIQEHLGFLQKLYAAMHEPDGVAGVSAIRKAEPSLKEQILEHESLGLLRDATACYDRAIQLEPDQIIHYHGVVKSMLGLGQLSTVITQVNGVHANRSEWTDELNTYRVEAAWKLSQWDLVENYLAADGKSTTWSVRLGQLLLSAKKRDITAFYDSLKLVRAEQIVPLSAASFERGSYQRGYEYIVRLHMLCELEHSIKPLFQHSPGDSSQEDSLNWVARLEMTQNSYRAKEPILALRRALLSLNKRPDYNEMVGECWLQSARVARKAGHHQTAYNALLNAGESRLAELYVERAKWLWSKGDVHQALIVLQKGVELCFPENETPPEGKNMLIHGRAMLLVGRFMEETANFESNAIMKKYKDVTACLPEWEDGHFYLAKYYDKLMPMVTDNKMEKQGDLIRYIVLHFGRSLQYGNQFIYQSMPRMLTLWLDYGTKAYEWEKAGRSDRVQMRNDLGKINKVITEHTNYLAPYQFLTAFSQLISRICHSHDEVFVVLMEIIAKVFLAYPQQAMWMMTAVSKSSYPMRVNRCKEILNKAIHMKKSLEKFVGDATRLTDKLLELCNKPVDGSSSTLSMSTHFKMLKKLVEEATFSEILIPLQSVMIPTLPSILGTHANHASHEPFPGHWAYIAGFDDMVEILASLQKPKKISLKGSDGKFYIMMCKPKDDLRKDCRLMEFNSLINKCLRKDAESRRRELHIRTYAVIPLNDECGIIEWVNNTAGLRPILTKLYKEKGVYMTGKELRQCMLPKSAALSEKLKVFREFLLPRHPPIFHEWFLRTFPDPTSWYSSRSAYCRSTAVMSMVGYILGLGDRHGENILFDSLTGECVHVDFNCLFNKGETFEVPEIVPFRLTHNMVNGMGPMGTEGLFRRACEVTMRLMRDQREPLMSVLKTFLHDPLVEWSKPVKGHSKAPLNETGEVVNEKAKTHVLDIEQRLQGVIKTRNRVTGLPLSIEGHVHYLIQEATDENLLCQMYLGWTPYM
Quantity Measured: Ki

Return reported Ki; argument: Nc1nn2cc(F)cnc2c1C(=O)Nc1cncc(F)c1N1CCC(C(=O)N2CCN(C3COC3)CC2)CC1 [M4344]
< 0.2 nM

* * *

The entries below come with measured Activity values attached.
System: MOLT-4
Protocol Description: Antiproliferative activity against human MOLT-4 cells assessed as […] cell proliferation at 10 uM incubated for 48 hrs by WST-1 assay relative to control
Type: functional
// note: answer is a bare numeric in %

| Smiles Notation | Activity / % |
| --- | --- |
| CC(C)S(=O)(=O)c1ccc(-c2cnc3[nH]nc(C(=O)N4CCC(c5ccccc5)CC4)c3c2)cc1 | 79 |

Please look up its Activity: `CC(C)S(=O)(=O)c1ccc(-c2cnc3[nH]cc(C(=O)N4CCc5ccccc5C4)c3c2)cc1`
85

GET /values?readout=Activity&item= `CCN(CC)c1ccc(CNC(=O)c2c[nH]c3ncc(-c4ccc(S(=O)(=O)C(C)C)cc4)cc23)cc1`
64

May I ask what Activity has been recorded for `CCN(CC)c1ccc(CNC(=O)c2c[nH]c3ncc(-c4ccc(S(C)(=O)=O)cc4)cc23)cc1` ?
76

Need Activity of `CC(C)S(=O)(=O)c1ccc(-c2cc(-c3nc(-c4ccccc4)no3)n[nH]2)cc1` , thanks.
101
